Each item that follows carries a reported mass density.
- measurementContext: 298.15 K; 101.33 kPa; Liquid
Field format: number, assumed kg/m3, no unit text.

Worked set:
>>> readoutnumber("FC(F)(F)C(F)(F)C(F)(F)C(F)(F)C(F)(F)C(F)(F)C(F)(F)C(F)(F)C(F)(F)F")
1787.9
>>> readoutnumber("FC(F)C(F)(F)C(F)(F)C(F)(F)C(F)(F)C(F)(F)C(F)(F)C(F)(F)F")
1749.9
>>> readoutnumber("FC(F)(F)C(F)(F)C(F)(F)C(F)(F)C(F)(F)C(F)(F)F")
1676.1

Could you now consider this next compound?
Read the entry Fc1c(F)c(F)c(F)c(F)c1F and write its reported mass density. 1606.2

---

- measurementContext: 303.15 K; 101.33 kPa; Liquid
Each item that follows carries a reported mass density.
Field format: number, assumed kg/m3, no unit text.

>>> readoutnumber("Fc1c(F)c(F)c(F)c(F)c1F")
1594.8
>>> readoutnumber("FC1(F)C(F)(F)C(F)(F)C2(F)C(F)(F)C(F)(F)C(F)(F)C(F)(F)C2(F)C1(F)F (centres undefined)")
1919.2
>>> readoutnumber("Fc1c(F)c(F)c(C(F)(F)F)c(F)c1F")
1650.9

Could you now consider this next molecule?
Read the entry FC(F)(F)C(F)(F)C(F)(F)C(F)(F)C(F)(F)C(F)(F)C(F)(F)C(F)(F)Br and write its reported mass density. 1902.8

---

- measurementContext: 303.15 K; 101.33 kPa; Liquid
Each item that follows carries a reported mass density.
Field format: number, assumed kg/m3, no unit text.

Worked set:
>>> readoutnumber("FC(F)C(F)(F)C(F)(F)C(F)(F)C(F)(F)C(F)(F)C(F)(F)C(F)(F)F")
1737.9
>>> readoutnumber("FC(F)(F)C(F)(F)C(F)(F)C(F)(F)C(F)(F)C(F)(F)F")
1661.1

Could you now consider this next compound?
Read the entry FC(F)(F)C(F)(F)C(F)(F)C(F)(F)C(F)(F)C(F)(F)C(F)(F)C(F)(F)C(F)(F)F and write its reported mass density. 1775.7

---

Each item that follows carries a reported mass density.
- measurementContext: 298.15 K; 101.33 kPa; Liquid
Field format: number, assumed kg/m3, no unit text.

Read the entry Fc1c(F)c(F)c(C(F)(F)F)c(F)c1F and write its reported mass density. 1661.6

Read the entry FC1(F)C(F)(F)C(F)(F)C2(F)C(F)(F)C(F)(F)C(F)(F)C(F)(F)C2(F)C1(F)F (stereo not drawn) and write its reported mass density. 1930.5

Read the entry FC(F)(F)C(F)(F)C(F)(F)C(F)(F)C(F)(F)C(F)(F)C(F)(F)C(F)(F)Br and write its reported mass density. 1914.8
